Hey, just so you know, these numbers are from paper PMC5078989.

test system: panel of cancer cell lines; test: Cell viability (CellTiter-Glo) dose-response across cancer cell line panel; type: cell-based, human; settings: Homo sapiens, COLO-678, COLO-678 cells;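 further: after 72 h compound incubation with CellTiter-Glo ATP readout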

molecule.smiles	EC50 [µM]
COCc1ccccc1NCc1ccc([C@@H]2[C@H](O)CCCc3cncn32)c(-c2ccccc2Cl)c1	16.6

----------
tested on: panel of cancer cell lines; assay: Cell viability (CellTiter-Glo) dose-response across cancer cell line panel; type: cell-based, human; settings: Homo sapiens, GDM-1, GDM-1;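 further: after 72 h compound incubation with CellTiter-Glo ATP readout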
property.label: EC50 (nM)

molecule.smiles	u	quantitative.result
NS(=O)(=O)OC[C@@H]1C[C@@H](n2ccc3c(N[C@H]4CCc5ccccc54)ncnc32)C[C@@H]1O	nM	188
COCc1ccccc1NCc1ccc([C@H]2[C@@H](O)CCCc3cncn32)c(-c2ccccc2Cl)c1	nM	162
